Target: Luciferin 4-monooxygenase (Photinus pyralis) (UniProt P08659)
Sequence (P08659 whole entry, looked up): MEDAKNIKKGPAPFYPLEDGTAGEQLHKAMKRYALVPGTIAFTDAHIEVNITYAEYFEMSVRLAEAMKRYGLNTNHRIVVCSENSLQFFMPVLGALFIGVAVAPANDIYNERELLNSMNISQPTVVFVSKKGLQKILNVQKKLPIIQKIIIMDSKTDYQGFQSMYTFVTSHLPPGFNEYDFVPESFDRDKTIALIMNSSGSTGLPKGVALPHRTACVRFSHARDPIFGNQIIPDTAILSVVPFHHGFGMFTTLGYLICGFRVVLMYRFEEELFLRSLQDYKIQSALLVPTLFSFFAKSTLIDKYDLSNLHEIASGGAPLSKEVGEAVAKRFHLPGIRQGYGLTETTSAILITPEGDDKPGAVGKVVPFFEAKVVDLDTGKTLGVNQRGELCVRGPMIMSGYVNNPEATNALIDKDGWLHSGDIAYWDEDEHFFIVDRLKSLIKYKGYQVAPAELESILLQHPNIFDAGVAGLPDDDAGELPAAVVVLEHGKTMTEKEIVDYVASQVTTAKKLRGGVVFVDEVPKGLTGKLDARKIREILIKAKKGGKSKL
Test: qHTS profiling assay for firefly luciferase inhibitor/activator using purifed enzyme and Km concentrations of substrates (counterscreen for miR-21 project); further: nearly all actives have a fitted effect of over 55% in size
Conditions: purified FLuc, luminescence inhibition; series mostly up to 57.5 µM
From the text: MLPCN Grant: 1 R21 NS059478-01 (miR-21 grant) Assay Provider: NCGC NCGC Assay Overview: Firefly (Photinus pyralis) luciferase is one of the most commonly used transcriptional reporters for a number of reasons. […] Although light produced in a bioluminescence reaction is of lower intensity than that produced during fluorescence emission, this is offset by little to no background light inherent to luminescent assays. […]
Out of some 360,000 compounds screened, about 25,000 (6.9%) were called active. Another 9% or so got no clear call; they are omitted. The call rests on the fitted dose curve; in most records, active means well fitted inhibition curve with a large enough effect; inconclusive means small, poorly fitted or top-dose-only effect; inactive means flat fitted curve, though single readings scatter. The full list was thinned out, with actives kept by preference.
Classes used: active, inactive

- COMPOUND: "COc1ccc(C(=O)OCC(=O)c2ccc(Cl)s2)c(OC)c1OC"
  SYSTEM_UNDER_TEST: "Luciferin 4-monooxygenase (Photinus pyralis) (UniProt P08659)"
  CLASSIFICATION: "active"
- COMPOUND: "CCOc1ccc(CNC(=O)C2CCCN(S(=O)(=O)N(CC)c3ccc(OCC)cc3)C2)cc1 (centres undefined)"
  SYSTEM_UNDER_TEST: "Luciferin 4-monooxygenase (Photinus pyralis) (UniProt P08659)"
  CLASSIFICATION: "inactive"
- COMPOUND: "CC1CN/C(=C\\C(=O)c2ccc(Br)cc2)C(=O)N1 (centres undefined)"
  SYSTEM_UNDER_TEST: "Luciferin 4-monooxygenase (Photinus pyralis) (UniProt P08659)"
  CLASSIFICATION: "active"
- COMPOUND: "CC1(c2ccc(Cl)cc2)NC(=O)N(CC(=O)c2ccc3c(c2)OCO3)C1=O (centres undefined)"
  SYSTEM_UNDER_TEST: "Luciferin 4-monooxygenase (Photinus pyralis) (UniProt P08659)"
  CLASSIFICATION: "inactive"
- COMPOUND: "O=C(Cn1c(-c2cccs2)cc2ccccc21)NCCc1ccc(Cl)cc1"
  SYSTEM_UNDER_TEST: "Luciferin 4-monooxygenase (Photinus pyralis) (UniProt P08659)"
  CLASSIFICATION: "inactive"
- COMPOUND: "CCCN=C1NC(=O)C(CC(=O)NCCc2ccc(OC)c(OC)c2)S1 (centres undefined)"
  SYSTEM_UNDER_TEST: "Luciferin 4-monooxygenase (Photinus pyralis) (UniProt P08659)"
  CLASSIFICATION: "inactive"
- COMPOUND: "O=C(CN1CCN(S(=O)(=O)c2cccc(Cl)c2)CC1)N1CCCCC1"
  SYSTEM_UNDER_TEST: "Luciferin 4-monooxygenase (Photinus pyralis) (UniProt P08659)"
  CLASSIFICATION: "inactive"
- COMPOUND: "Cc1cccc(Cn2c(=O)n(CCC(=O)NCCc3ccc(Cl)cc3)c(=O)c3sccc32)c1"
  SYSTEM_UNDER_TEST: "Luciferin 4-monooxygenase (Photinus pyralis) (UniProt P08659)"
  CLASSIFICATION: "inactive"
- COMPOUND: "COc1ccc(C(=O)OCC(=O)Nc2ccc3[nH]c(=O)[nH]c3c2)c(OC)c1OC"
  SYSTEM_UNDER_TEST: "Luciferin 4-monooxygenase (Photinus pyralis) (UniProt P08659)"
  CLASSIFICATION: "inactive"
- COMPOUND: "CCCc1cc(C(=O)Nc2ccc(Cl)cn2)cs1"
  SYSTEM_UNDER_TEST: "Luciferin 4-monooxygenase (Photinus pyralis) (UniProt P08659)"
  CLASSIFICATION: "active"
- COMPOUND: "CC1(C)Cc2ccccc2/C(=C/C(=O)c2ccccc2)N1"
  SYSTEM_UNDER_TEST: "Luciferin 4-monooxygenase (Photinus pyralis) (UniProt P08659)"
  CLASSIFICATION: "inactive"
- COMPOUND: "CC1CCN(S(=O)(=O)c2ccc3c(c2)N(CC(=O)NCCc2ccccc2)C(=O)CO3)CC1"
  SYSTEM_UNDER_TEST: "Luciferin 4-monooxygenase (Photinus pyralis) (UniProt P08659)"
  CLASSIFICATION: "inactive"
- COMPOUND: "CC(=O)Nc1cccc2c1[n+]([O-])c(C)c(C)[n+]2[O-]"
  SYSTEM_UNDER_TEST: "Luciferin 4-monooxygenase (Photinus pyralis) (UniProt P08659)"
  CLASSIFICATION: "inactive"
- COMPOUND: "Cc1cccc(C)c1NC(=O)CNC(=O)c1ccc2c(c1)OCCO2"
  SYSTEM_UNDER_TEST: "Luciferin 4-monooxygenase (Photinus pyralis) (UniProt P08659)"
  CLASSIFICATION: "inactive"

* * *

Target: Luciferin 4-monooxygenase (Photinus pyralis)
Assay: qHTS profiling assay for firefly luciferase inhibitor/activator using purifed enzyme and Km concentrations of substrates (counterscreen for miR-21 project); further: nearly all actives have a fitted effect of over 55% in size
Details: purified FLuc, luminescence inhibition; series mostly up to 57.5 µM
The campaign covered roughly 360,000 compounds. About 25,000 (6.9%) were called active. Inconclusive results (about 9%) are left out. Calls come from the whole dose curve; as a rule, active = well fitted inhibition curve with a large enough effect; inconclusive = small, poorly fitted or top-dose-only effect; inactive = flat fitted curve, though single readings scatter. The sample holds actives, similar compounds and a random draw of the others, so the mix is not that of the screen.
Outcome codes: active, inactive

- COMPOUND_SMILES: "CCCc1nn2c(=O)cc(COC(=O)c3ccc(NC(=O)COc4ccc(F)cc4)cc3)nc2s1"
  CLASSIFICATION: "inactive"
- COMPOUND_SMILES: "COc1ccc2oc(N)c(C=O)c(=O)c2c1"
  CLASSIFICATION: "inactive"
- COMPOUND_SMILES: "CCc1cc2c(=O)c(-c3ccon3)c(N)oc2cc1OC"
  CLASSIFICATION: "active"
- COMPOUND_SMILES: "Cc1ccc(-n2cc3ccc([N+](=O)[O-])cc3n2)cc1"
  CLASSIFICATION: "active"

* * *

Molecular target: Luciferin 4-monooxygenase (Photinus pyralis)
Assay: qHTS profiling assay for firefly luciferase inhibitor/activator using purifed enzyme and Km concentrations of substrates (counterscreen for miR-21 project); further: nearly all actives have a fitted effect of over 55% in size
Details: purified FLuc, luminescence inhibition; series mostly up to 57.5 µM
Out of some 360,000 compounds screened, about 25,000 (6.9%) were called active. About 9% were inconclusive and are not listed. The call rests on the fitted dose curve; in most records, active means well fitted inhibition curve with a large enough effect; inconclusive means small, poorly fitted or top-dose-only effect; inactive means flat fitted curve, though single readings scatter. The sample as a whole holds a higher share of actives than the screen did.
Outcome codes: active, inactive

- COMPOUND: "O=C(c1cc2cc(Br)cc(Br)c2oc1=O)N1CCOCC1"
  SYSTEM_UNDER_TEST: "Luciferin 4-monooxygenase (Photinus pyralis)"
  CLASSIFICATION: "inactive"
- COMPOUND: "O=C(COC(=O)c1c2c(nc3ccccc13)CCCC2)c1ccc(Br)s1"
  SYSTEM_UNDER_TEST: "Luciferin 4-monooxygenase (Photinus pyralis)"
  CLASSIFICATION: "active"
- COMPOUND: "CCOC(=O)c1c(C)[nH]c(C(=O)OCC(=O)c2ccc(OC)cc2OC)c1C"
  SYSTEM_UNDER_TEST: "Luciferin 4-monooxygenase (Photinus pyralis)"
  CLASSIFICATION: "inactive"
- COMPOUND: "CC(=O)NC(=S)Nc1ccc(NC(=O)c2cccnc2)cc1"
  SYSTEM_UNDER_TEST: "Luciferin 4-monooxygenase (Photinus pyralis)"
  CLASSIFICATION: "inactive"
- COMPOUND: "O=C(N/N=C/c1sc(N2CCCCC2)nc1-c1cccs1)c1cccnc1"
  SYSTEM_UNDER_TEST: "Luciferin 4-monooxygenase (Photinus pyralis)"
  CLASSIFICATION: "active"
- COMPOUND: "Cc1ccc(-n2ncc3c(=O)[nH]cnc32)c(C)c1"
  SYSTEM_UNDER_TEST: "Luciferin 4-monooxygenase (Photinus pyralis)"
  CLASSIFICATION: "inactive"
- COMPOUND: "Cc1cccc(-n2ncc(Cl)c(Cl)c2=O)c1"
  SYSTEM_UNDER_TEST: "Luciferin 4-monooxygenase (Photinus pyralis)"
  CLASSIFICATION: "inactive"
- COMPOUND: "O=C1N(Cc2ccccc2)c2ccc(Cl)cc2C1(O)c1c[nH]c2ccccc12 (centres undefined)"
  SYSTEM_UNDER_TEST: "Luciferin 4-monooxygenase (Photinus pyralis)"
  CLASSIFICATION: "inactive"
- COMPOUND: "COc1cccc(CC(=O)Nc2ccc(-c3csc(C)n3)cc2)c1"
  SYSTEM_UNDER_TEST: "Luciferin 4-monooxygenase (Photinus pyralis)"
  CLASSIFICATION: "active"
- COMPOUND: "COc1c(Cl)cc(C(=O)N(Cc2ccccc2F)C2CCS(=O)(=O)C2)cc1Cl (centres undefined)"
  SYSTEM_UNDER_TEST: "Luciferin 4-monooxygenase (Photinus pyralis)"
  CLASSIFICATION: "inactive"
- COMPOUND: "Cc1nc(-c2ccc(NC(=O)c3cccs3)cc2)cs1"
  SYSTEM_UNDER_TEST: "Luciferin 4-monooxygenase (Photinus pyralis)"
  CLASSIFICATION: "active"
- COMPOUND: "Cc1ccc(S(=O)(=O)N2CCCCC2)cc1NC(=O)c1cccnc1"
  SYSTEM_UNDER_TEST: "Luciferin 4-monooxygenase (Photinus pyralis)"
  CLASSIFICATION: "inactive"
- COMPOUND: "COc1ccc(C(=O)CSc2c(C(C)C)cnc3c2c(=O)n(C)c(=O)n3C)cc1"
  SYSTEM_UNDER_TEST: "Luciferin 4-monooxygenase (Photinus pyralis)"
  CLASSIFICATION: "inactive"
- COMPOUND: "O=C(Nc1c2c(nc3ccccc13)CCCC2)c1ccccc1Br"
  SYSTEM_UNDER_TEST: "Luciferin 4-monooxygenase (Photinus pyralis)"
  CLASSIFICATION: "inactive"
- COMPOUND: "COc1ccc(-n2ncc3c(N4CCc5ccccc54)ncnc32)cc1"
  SYSTEM_UNDER_TEST: "Luciferin 4-monooxygenase (Photinus pyralis)"
  CLASSIFICATION: "active"
- COMPOUND: "Cc1cccc(-n2c(=O)c3c(c4cc(C)ccc4n3C)n(CC(=O)Nc3ccccc3Cl)c2=O)c1"
  SYSTEM_UNDER_TEST: "Luciferin 4-monooxygenase (Photinus pyralis)"
  CLASSIFICATION: "inactive"
- COMPOUND: "Cc1ccc(-c2cc(C(F)(F)F)c(C#N)c(SCC(=O)Nc3ccccc3)n2)cc1"
  SYSTEM_UNDER_TEST: "Luciferin 4-monooxygenase (Photinus pyralis)"
  CLASSIFICATION: "inactive"
- COMPOUND: "Cc1ccc2[nH]c(=O)c(CN(CC3COCCO3)C(=O)Nc3ccccc3C)cc2c1 (centres undefined)"
  SYSTEM_UNDER_TEST: "Luciferin 4-monooxygenase (Photinus pyralis)"
  CLASSIFICATION: "inactive"
- COMPOUND: "CCc1c(C)sc(NC(=O)C2c3ccccc3Oc3ccccc32)c1C(=O)OC(C)C"
  SYSTEM_UNDER_TEST: "Luciferin 4-monooxygenase (Photinus pyralis)"
  CLASSIFICATION: "inactive"
- COMPOUND: "COc1ccc(-n2ncc3c(N4CCCc5ccccc54)ncnc32)cc1"
  SYSTEM_UNDER_TEST: "Luciferin 4-monooxygenase (Photinus pyralis)"
  CLASSIFICATION: "active"
- COMPOUND: "CCOc1ccc(NC(=O)CSc2c3c(nc4ccccc24)CCCC3)cc1"
  SYSTEM_UNDER_TEST: "Luciferin 4-monooxygenase (Photinus pyralis)"
  CLASSIFICATION: "inactive"
- COMPOUND: "CC(=O)Nc1ccc(NC(=O)c2cc3sccc3n2Cc2ccc(F)cc2)cc1"
  SYSTEM_UNDER_TEST: "Luciferin 4-monooxygenase (Photinus pyralis)"
  CLASSIFICATION: "inactive"
- COMPOUND: "O=C(Cc1ccccc1)Nc1ccc(NC(=O)c2cccnc2)cc1"
  SYSTEM_UNDER_TEST: "Luciferin 4-monooxygenase (Photinus pyralis)"
  CLASSIFICATION: "inactive"
- COMPOUND: "O=C1Cc2cc(S(=O)(=O)Nc3cccc(F)c3)ccc2N1"
  SYSTEM_UNDER_TEST: "Luciferin 4-monooxygenase (Photinus pyralis)"
  CLASSIFICATION: "inactive"
- COMPOUND: "Cc1ccc(N2CCN(C(=O)CCc3c(C)nc4c(c3C)c(=O)n(C)c(=O)n4C)CC2)c(C)c1"
  SYSTEM_UNDER_TEST: "Luciferin 4-monooxygenase (Photinus pyralis)"
  CLASSIFICATION: "inactive"
- COMPOUND: "COc1ccc(CCC(C)N2CCc3ccccc3C2)cc1 (centres undefined)"
  SYSTEM_UNDER_TEST: "Luciferin 4-monooxygenase (Photinus pyralis)"
  CLASSIFICATION: "inactive"
- COMPOUND: "Cc1cccc(-n2ncc3c(N4CCc5ccccc54)ncnc32)c1"
  SYSTEM_UNDER_TEST: "Luciferin 4-monooxygenase (Photinus pyralis)"
  CLASSIFICATION: "active"
- COMPOUND: "COc1ccccc1N1CCN(c2ccc(=O)n(CC(=O)NCc3ccc(OC(C)C)cc3)n2)CC1"
  SYSTEM_UNDER_TEST: "Luciferin 4-monooxygenase (Photinus pyralis)"
  CLASSIFICATION: "inactive"
- COMPOUND: "CCOC(=O)c1oc2ccccc2c1NC(=O)c1cccs1"
  SYSTEM_UNDER_TEST: "Luciferin 4-monooxygenase (Photinus pyralis)"
  CLASSIFICATION: "inactive"
- COMPOUND: "COc1cc(OC)c(C(=O)NC2CCCCCC2)cc1OC"
  SYSTEM_UNDER_TEST: "Luciferin 4-monooxygenase (Photinus pyralis)"
  CLASSIFICATION: "inactive"
- COMPOUND: "CCOC(=O)c1ccc(NC(=O)CCS(=O)(=O)c2ccc(C)cc2)cc1"
  SYSTEM_UNDER_TEST: "Luciferin 4-monooxygenase (Photinus pyralis)"
  CLASSIFICATION: "inactive"
- COMPOUND: "O=C(Nc1ccc(-c2nc3cc(NC(=O)c4ccccc4Cl)ccc3o2)cc1)c1ccccc1Cl"
  SYSTEM_UNDER_TEST: "Luciferin 4-monooxygenase (Photinus pyralis)"
  CLASSIFICATION: "inactive"
- COMPOUND: "COCc1cc(C)nc2sc(C(=O)NC3CCCCC3)c(N)c12"
  SYSTEM_UNDER_TEST: "Luciferin 4-monooxygenase (Photinus pyralis)"
  CLASSIFICATION: "active"
- COMPOUND: "CCOC(=O)C1=C(c2ccccc2)O/C(=C(/C(=O)OC)C(F)(F)F)S1"
  SYSTEM_UNDER_TEST: "Luciferin 4-monooxygenase (Photinus pyralis)"
  CLASSIFICATION: "inactive"
